Measured values drawn from patent US9914724B2 for this set.

Molecular target: SGLT-2 (Homo sapiens)
Sequence (P31639 whole entry, species assumed): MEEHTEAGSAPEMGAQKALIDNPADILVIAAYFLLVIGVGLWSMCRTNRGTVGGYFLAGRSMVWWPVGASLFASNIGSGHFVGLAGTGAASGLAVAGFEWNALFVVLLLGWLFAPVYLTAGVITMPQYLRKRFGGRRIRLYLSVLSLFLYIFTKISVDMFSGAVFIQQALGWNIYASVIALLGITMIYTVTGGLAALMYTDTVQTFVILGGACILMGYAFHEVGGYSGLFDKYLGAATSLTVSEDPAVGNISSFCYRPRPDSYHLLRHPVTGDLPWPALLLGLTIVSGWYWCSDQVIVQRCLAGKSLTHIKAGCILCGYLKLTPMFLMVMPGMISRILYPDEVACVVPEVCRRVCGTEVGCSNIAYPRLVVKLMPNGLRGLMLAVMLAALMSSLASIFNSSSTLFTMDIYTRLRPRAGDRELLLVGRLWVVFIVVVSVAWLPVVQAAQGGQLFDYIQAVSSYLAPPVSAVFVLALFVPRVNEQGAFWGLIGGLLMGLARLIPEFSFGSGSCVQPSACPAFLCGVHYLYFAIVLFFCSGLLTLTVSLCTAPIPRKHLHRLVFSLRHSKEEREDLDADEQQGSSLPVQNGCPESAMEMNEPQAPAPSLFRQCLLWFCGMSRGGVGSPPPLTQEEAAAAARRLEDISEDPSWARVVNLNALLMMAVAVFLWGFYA
Assay: [14C]-AMG absorption in stable SGLT2 expressing Flp-in CHO cells (SGLT-2 activity screening assay)
Conditions: 14C-AMG uptake, 37° C. 1 h, 1% DMSO
Measured endpoint: IC50 (nM)

> print(dat)
                                   compound  measured.endpoint  test.value
1  OC[C@H]1O[C@@H](c2ccc(Cl)c(Cc3ccc(OCC4Cc5ccccc5O4)c(F)c3)c2)[C@H](O)[C@@H](O)[C@@H]1O (stereo partly shown)               IC50          11

[A] OC[C@H]1O[C@@H](c2ccc(Cl)c(Cc3ccc(OCC4Cc5c(F)cccc5O4)cc3)c2)[C@H](O)[C@@H](O)[C@@H]1O (stereo partly shown)
[B] OC[C@H]1O[C@@H](c2ccc(F)c(Cc3ccc(OCc4cc5ccccc5o4)cc3)c2)[C@H](O)[C@@H](O)[C@@H]1O
Asked: Pick the one with the larger IC50: A vs B Please respond with the label that marks your chosen entry.
Given back: B

###

Biological target: SGLT-1 (Homo sapiens)
Sequence (P13866 1-664): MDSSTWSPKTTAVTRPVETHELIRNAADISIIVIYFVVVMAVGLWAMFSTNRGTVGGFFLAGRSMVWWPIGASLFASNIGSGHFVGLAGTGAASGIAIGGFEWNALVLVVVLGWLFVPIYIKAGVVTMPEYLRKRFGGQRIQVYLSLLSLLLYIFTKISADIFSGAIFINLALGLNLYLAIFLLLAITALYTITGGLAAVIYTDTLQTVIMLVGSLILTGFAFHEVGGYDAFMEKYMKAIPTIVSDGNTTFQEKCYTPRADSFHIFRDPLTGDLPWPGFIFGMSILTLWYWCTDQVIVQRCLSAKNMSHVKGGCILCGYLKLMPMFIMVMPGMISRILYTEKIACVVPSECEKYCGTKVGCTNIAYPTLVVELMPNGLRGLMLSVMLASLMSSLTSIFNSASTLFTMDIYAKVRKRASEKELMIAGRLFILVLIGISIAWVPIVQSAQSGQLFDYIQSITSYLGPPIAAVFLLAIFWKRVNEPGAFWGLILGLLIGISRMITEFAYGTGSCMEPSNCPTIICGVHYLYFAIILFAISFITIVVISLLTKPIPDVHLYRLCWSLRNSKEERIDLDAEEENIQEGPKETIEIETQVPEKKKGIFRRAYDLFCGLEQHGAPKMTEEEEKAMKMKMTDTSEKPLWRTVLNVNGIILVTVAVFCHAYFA
Assay: [14C]-AMG absorption in stable SGLT1 expressing Flp-in CHO cells (SGLT-1 activity screening assay)
Settings: 14C-AMG uptake, 37° C. 1 h, 1% DMSO
Measured endpoint: IC50 (µM)

> print(dat)
                                   compound  measured.endpoint  output.unit  test.value
1  OC[C@H]1O[C@@H](c2ccc(Cl)c(Cc3ccc(OCC4OCc5ccccc54)cc3)c2)[C@H](O)[C@@H](O)[C@@H]1O (stereo partly drawn)               IC50           µM       0.584
2  OC[C@H]1O[C@@H](c2ccc(Cl)c(Cc3ccc(OC[C@@H]4OCc5ccccc54)cc3)c2)[C@H](O)[C@@H](O)[C@@H]1O               IC50           µM       0.608
3  OC[C@H]1O[C@@H](c2ccc(Cl)c(Cc3ccc(OC[C@H]4OCc5ccccc54)cc3)c2)[C@H](O)[C@@H](O)[C@@H]1O               IC50           µM       0.615
